experiment_description: Primary qHTS to identify inhibitors of SARS-CoV-2 cell entry (AID 1645846); note: nearly all actives have a fitted effect of over 45% in size
condition_context: SARS-CoV-2 pseudovirus cell entry assay, luminescence; at 57.1 µM (top of the series) unless noted
Results filed as inconclusive are left out.
measure: activity change, negative = inhibition (%)
API: value field is a number in %; no unit string.

In the examples that follow, each entry is paired with its recorded activity change, negative = inhibition.
Entry under test: CC(=O)Oc1cc2c(s1)CCN(C(C(=O)C1CC1)c1ccccc1F)C2 (centres undefined) . Its activity change, negative = inhibition was -16.4

Data point: CCC(C(N)=O)N1CCCC1=O (centres undefined) ; activity change, negative = inhibition = -16.2

# molecule COc1ccc2nc(S(=O)Cc3ncc(C)c(OC)c3C)[nH]c2c1 (centres undefined) ; its activity change, negative = inhibition = -4.15

Briefly, activity change, negative = inhibition measured for CC(N)C12CC3CC(CC(C3)C1)C2 (centres undefined) : -7.42

Lookup result for N[C@@H]1C[C@H]1c1ccccc1 ; measured activity change, negative = inhibition: -29.3

***
Per the records, this molecule ( COc1c(C)c2c(c(O)c1C/C=C(\C)CCC(=O)OCCN1CCOCC1)C(=O)OC2 ) has activity change, negative = inhibition equal to -45.8

For reference, reported activity change, negative = inhibition for Cc1ccnc2c1NC(=O)c1cccnc1N2C1CC1 stands at -19.4

Item: COC(=O)C1=C(C)NC(C)=C(C(=O)OCC(C)C)C1c1ccccc1[N+](=O)[O-] (centres undefined) | activity change, negative = inhibition: -96.9

The molecule NC12CC3CC(CC(C3)C1)C2 showed activity change, negative = inhibition equal to -26.7

CC(COc1ccccc1)N(CCCl)Cc1ccccc1 (centres undefined) has a reported activity change, negative = inhibition of -7.59

Reported activity change, negative = inhibition ( O=[N+]([O-])c1cc([As](=O)(O)O)ccc1O ) = -27.8

Cc1cc2c(s1)Nc1ccccc1N=C2N1CCN(C)CC1 has a reported activity change, negative = inhibition of -19.8

For this molecule ( CCCc1nc2c(C)cc(-c3nc4ccccc4n3C)cc2n1Cc1ccc(-c2ccccc2C(=O)O)cc1 ), measured activity change, negative = inhibition is -3.28

The molecule identified as C#CCN(C)[C@H](C)Cc1ccccc1 registered its activity change, negative = inhibition at -14

The molecule Cn1ccc2cc3c(cc21)CCN3C(=O)Nc1cccnc1 showed activity change, negative = inhibition equal to -18.3

# molecule CNCC[C@@H](Oc1ccccc1C)c1ccccc1 ; its activity change, negative = inhibition = -15.9

Reported activity change, negative = inhibition ( CC1(C)NC(=O)N(c2ccc([N+](=O)[O-])c(C(F)(F)F)c2)C1=O ) = -23.9

Field activity change, negative = inhibition (entry CCCN(CCC)S(=O)(=O)c1ccc(C(=O)O)cc1 ) reads -14.9

Consider COc1ccc(Cl)cc1C(=O)NCCc1ccc(S(=O)(=O)NC(=O)NC2CCCCC2)cc1 . Its measured activity change, negative = inhibition is 4.27

Summary for this molecule, COC(=O)Nc1nc2ccc(C(=O)c3cccs3)cc2[nH]1 : activity change, negative = inhibition is -61.3

Sample CC(=O)Nc1cc([As](=O)(O)O)ccc1O ; activity change, negative = inhibition observed: -7.63

Form: molecule = CC[C@@H](CO)NCCN[C@@H](CC)CO ; activity change, negative = inhibition = -13.9

Entry CS(=O)(=O)OCCCCOS(C)(=O)=O — recorded activity change, negative = inhibition = -16.9

###

experiment_description: Primary qHTS for inhibitors of MERS-S pseudo-typed particle cell entry (AID 1479149); note: nearly all actives have a fitted effect of over 60% in size; note: potency is the fitted concentration of half-maximal effect
condition_context: MERS-S pseudotyped particle entry, luciferase; series mostly up to 57.1 µM
Inconclusive results are not listed. The source made the active and inactive calls. Calls follow the shape of the full dose curve.
measure: Potency

Please review the following examples before continuing.
Reported Potency of OCCN1C[C@H](O)[C@@H](O)[C@H](O)[C@H]1CO : inactive

The recorded Potency for Cc1cc(C)cc(OCC2CNC(=O)O2)c1 (stereo not drawn) is inactive

Notebook: Cc1cnc(C(=O)NCCc2ccc(S(=O)(=O)NC(=O)NC3CCCCC3)cc2)cn1 , Potency read as inactive

The recorded Potency for O=C1Cc2cc(CCN3CCN(c4nsc5ccccc45)CC3)c(Cl)cc2N1 is inactive

Field Potency (entry CC1=C(C(=O)O)N2C(=O)[C@@H](NC(=O)[C@H](N)c3ccc(O)cc3)[C@H]2SC1 ) reads inactive

New cases:
The reported Potency of the compound Cc1cn[nH]c1 was inactive

The compound identified as O=C(O)CCCc1ccccc1 registered its Potency at inactive

The recorded Potency for entry O=[N+]([O-])c1cc([As](=O)(O)O)ccc1O equals inactive

Value of Potency reported for the compound C[C@@H]1O[C@@H](O[C@H]2C[C@@H](O)[C@]3(CO)[C@H]4[C@H](O)C[C@]5(C)[C@@H](C6=CC(=O)OC6)CC[C@]5(O)[C@@H]4CC[C@]3(O)C2)[C@H](O)[C@H](O)[C@H]1O is inactive

According to the records, this compound CC(C)c1c(C(=O)Nc2ccccc2)c(-c2ccccc2)c(-c2ccc(F)cc2)n1CC[C@@H](O)C[C@@H](O)CC(=O)O displays Potency of inactive

GET /value?item= Cc1nccn1CC1CCc2c(c3ccccc3n2C)C1=O (stereo not drawn) &field=Potency returns inactive

Please fill in: Potency reported for CC(C)=CC1C(C(=O)OCc2cccc(Oc3ccccc3)c2)C1(C)C (stereo not drawn) = inactive

Input CC(C(=O)O)c1cccc(C(=O)c2ccccc2)c1 (stereo not drawn) . Output Potency: inactive

Entry under test: COc1ccc(C(CN(C)C)C2(O)CCCCC2)cc1 (stereo not drawn) . Its Potency was inactive

Memo: CCc1c2c(nc3ccc(OC(=O)N4CCC(N5CCCCC5)CC4)cc13)-c1cc3c(c(=O)n1C2)COC(=O)[C@]3(O)CC , reported Potency: 10 µM (active)

response.value for Cn1cc[nH]c1=S (field: Potency) = inactive

The recorded Potency for C#CCN(C)[C@H](C)Cc1ccccc1 is inactive

###

experiment_description: Quantitative High-Throughput drug screen in 47 multiple myeloma cell lines against the NCATS MIPE library collection: JIM1_ECACC cell viability assay (AID 1918964)
condition_context: JIM1 myeloma viability, CellTiter-Glo ATP luminescence, 48 h; series mostly up to 45.8 µM
Results filed as inconclusive are left out. The source made the active and inactive calls. The call rests on the fitted dose curve; in most records, active means well fitted cell-killing curve with a large enough effect; inconclusive means small, poorly fitted or top-dose-only effect, or effect the other way; inactive means no such curve, though single readings can be large or run the other way.
One label from this list, please: T for active, F for inactive

Consider the worked cases shown below.
Answer briefly: the call reported for N[C@@H](Cc1ccc(N(CCCl)CCCl)cc1)C(=O)O in this assay.
T

# outcome recorded in this test, key = C=C(C)[C@H]1Cc2c(ccc3c2O[C@@H]2COc4cc(OC)c(OC)cc4[C@@H]2C3=O)O1
T

Could you kindly confirm the outcome this assay logged for CC1=C2C[C@@H]3[C@@H](CC=C4C[C@@H](O)CC[C@@]43C)[C@@H]2CC[C@]12O[C@H]1C[C@H](C)CN[C@H]1[C@H]2C ?
F

Recorded call for CNCC(O)c1ccc(O)cc1 (stereo not given) ?
F

Further cases:
Call for entry CCCC(C)(COC(N)=O)COC(=O)NC(C)C (stereo not given) :
F

In this assay, the call recorded for O=C1CC[C@@]2(O)[C@H]3Cc4ccc(O)c5c4[C@@]2(CCN3CC2CC2)[C@H]1O5 was what?
F

State the result this test recorded for COc1ccc(C(CN(C)C)C2(O)CCCCC2)cc1 (stereo not given) .
F

Hello, I am checking results. What call was entered for CC(C)CC(N(C)C)C1(c2ccc(Cl)cc2)CCC1 (stereo not given) ?
F

What outcome does the record of this test show for C[C@@H]1[C@@H](CC(C[C@H]2O[C@@H]3O[C@]4(C)CC[C@@H]5[C@H](C)CC[C@@H]([C@H]2C)[C@@]35OO4)C[S+](=O)([O-])c2ccc(COC(=O)N(C)C)cc2)O[C@@H]2O[C@]3(C)CC[C@H]4[C@H](C)CC[C@@H]1[C@@]24OO3 (stereo not given in full) ?
T

Which result was noted for this compound in the test: CN1CCN(C(=O)O[C@H]2c3nccnc3C(=O)N2c2ccc(Cl)cn2)CC1
F

###

experiment_description: Cytometry Cell-Based qHTS for Inhibitors of the mTORC1 Signaling Pathway in MEF cells (AID 2668)
condition_context: mTORC1 pathway readout; series mostly up to 38.3 µM
Records with an inconclusive call do not appear. The source made the active and inactive calls. Calls follow the shape of the dose curve; as a rule, active = well fitted inhibition curve with a large enough effect; inconclusive = small, poorly fitted or top-dose-only effect; inactive = flat fitted curve, though single readings scatter.
# valid calls are active, inactive; nothing else

The following compounds have reported results that may help.
I'd appreciate the recorded outcome for CC(C)=CCOc1c2occc2cc2ccc(=O)oc12 from this test.
inactive

GET /call?item= C=C(C)[C@H]1Cc2c(ccc3c2O[C@@H]2COc4cc(OC)c(OC)cc4[C@@H]2C3=O)O1 returns the recorded outcome of this test.
active

Assay outcome for Nc1ccncc1 : what was it?
inactive

Which result was noted for this compound in the test: NCC(CC(=O)O)c1ccc(Cl)cc1 (stereo unspecified)
inactive

# fetch the recorded call for CC(CCc1ccccc1)NC(C)C(O)c1ccc(O)cc1 (stereo unspecified) here
inactive

Now for a further compound.
// return assay outcome for C[C@@H]1O[C@@H](O[C@H]2C[C@@H](O)[C@]3(CO)[C@H]4[C@H](O)C[C@]5(C)[C@@H](C6=CC(=O)OC6)CC[C@]5(O)[C@@H]4CC[C@]3(O)C2)[C@H](O)[C@H](O)[C@H]1O
inactive

The values you see were collected from PubChem BioAssay (NCATS).
